Where these numbers come from: the supplement of paper PMC9233669

System: biotinyl-Trp-oxazolone
Experiment Description: self-aminoacylation, catalytic enhancement (BWO) (fold over background); higher = more active; k-Seq, kA / k0A0; sequences stand for … in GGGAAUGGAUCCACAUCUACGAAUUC…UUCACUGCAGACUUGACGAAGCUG
Fewer inactive variants are shown than the library holds.
Decision: self-aminoacylation compared against 4; not below it gives y, below it gives n.

AAGCUUGCUAAGAGUCGCAAG [Fam3.1 aminoacylation ribozyme variant]
n
AUUCACCUACGCCAUCGGGUG [Fam2.2 aminoacylation ribozyme variant]
n
AUCACCCUAGUCAUCGAGUGA [Fam2.1 aminoacylation ribozyme variant]
y
CUACUUCAAGCAAUCGGGCUG [Fam1A.1 aminoacylation ribozyme variant]
n

Query: Could you please find out whether AUUACCCUGGUCACCGGGUGA [Fam2.1 aminoacylation ribozyme variant] has self-aminoacylation that meets 4 or exceeds it?
Reply: y

Query: Next entry: AUGCACCUAGGUCGUCGGGUG [Fam2.2 aminoacylation ribozyme variant]
Reply: n

###

System: biotinyl-Met-oxazolone
Experiment Description: self-aminoacylation, catalytic enhancement (BMO) (fold over background); higher = more active; k-Seq, kA / k0A0; sequences stand for … in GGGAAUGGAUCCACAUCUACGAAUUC…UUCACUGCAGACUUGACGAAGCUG
Variants at the floor of the assay were thinned out.
Catalogue of self-aminoacylation values
Give a plain numeric answer without units written out.

Please review the following examples before continuing.
CGACGUCAAACAAUCGGUCUG [Fam1A.1 aminoacylation ribozyme variant]
1.84
CCACACUUGAACCAAUCGGUC [Fam1B.1 aminoacylation ribozyme variant]
0.673
CUACUUCCAACAUUCGGUCUG [Fam1A.1 aminoacylation ribozyme variant]
1.07
CUACUUCAAUCACUCGGUCUG [Fam1A.1 aminoacylation ribozyme variant]
0.68

Query: Which self-aminoacylation is listed for CCAGACUUCAACCAAUCGGUC [Fam1B.1 aminoacylation ribozyme variant] ?
Reply: 1.63

Query: Input UUUACCCUGGUCAUCGAAUGA [Fam2.1 aminoacylation ribozyme variant]
Reply: 1.22

Query: Can you handle AAGGUUGCUAAUAGGCGCAAG [Fam3.1 aminoacylation ribozyme variant] next?
Reply: 0.729

###

Tested on: biotinyl-Leu-oxazolone
Experiment Description: self-aminoacylation, catalytic enhancement (BLO) (fold over background); higher = more active; k-Seq, kA / k0A0; sequences stand for … in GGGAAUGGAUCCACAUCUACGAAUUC…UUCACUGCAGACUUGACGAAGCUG
Fewer inactive variants are shown than the library holds.
Label class 0 if self-aminoacylation falls below 2; label class 1 in every other case.

AUUACACUGGUCAUCGGGUGA [Fam2.1 aminoacylation ribozyme variant]
class 1

Query: API: above_or_equal(metric=self-aminoacylation, cutoff=2) for item AAGUUUGCUAAUACUCGCCAG [Fam3.1 aminoacylation ribozyme variant]
Reply: class 0

Query: Continue with AAGUUUGCUAAUAGUAGCCAG [Fam3.1 aminoacylation ribozyme variant]
Reply: class 0

Query: For AUUACCGUGGUCAUCGAGUGG [Fam2.1 aminoacylation ribozyme variant] then?
Reply: class 0

Query: Same lookup for CAACACUGCAAGCAAUCGGUC [Fam1B.1 aminoacylation ribozyme variant] , please.
Reply: class 0

Query: // next record AUUCACCCAGGCCAUCGGGUG [Fam2.2 aminoacylation ribozyme variant]
Reply: class 1

Query: Also need CCAGACUUCAAGCGAUCGGUC [Fam1B.1 aminoacylation ribozyme variant] , thanks.
Reply: class 0

Query: Next sequence up: AUUACCCUGGUGCUCGAGUGA [Fam2.1 aminoacylation ribozyme variant]
Reply: class 1

Query: // next record GUACUUCAAACAAUCGGUGUG [Fam1A.1 aminoacylation ribozyme variant]
Reply: class 1

Query: How about AUUCCCCUGGUAAUCGAGUGA [Fam2.1 aminoacylation ribozyme variant] ?
Reply: class 1

Query: Repeat with AAGUUUGCUAGAAGUCGCAAG [Fam3.1 aminoacylation ribozyme variant]
Reply: class 0

###

Tested on: biotinyl-Val-oxazolone
Experiment Description: self-aminoacylation, catalytic enhancement (BVO) (fold over background); higher = more active; k-Seq, kA / k0A0; sequences stand for … in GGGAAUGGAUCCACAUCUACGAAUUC…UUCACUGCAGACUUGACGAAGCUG
Variants at the floor of the assay were thinned out.
self-aminoacylation listing for selected sequences.
# print the numeric value only

AUUCACCUACGUCAUCGGGCG [Fam2.2 aminoacylation ribozyme variant]
2.97
CCUCACUUCAAGCAAUUGGUC [Fam1B.1 aminoacylation ribozyme variant]
0.606
AAGUUUGCUAAAAGUCGCAGG [Fam3.1 aminoacylation ribozyme variant]
1.12
AUGCCCCUGGUCAUCGAGUGA [Fam2.1 aminoacylation ribozyme variant]
5.59
AUUCUCCUAGGGCAUCGGGUG [Fam2.2 aminoacylation ribozyme variant]
3.73

Query: I would be grateful if you could share the reported self-aminoacylation for AUUUACCUAGGUUAUCGGGUG [Fam2.2 aminoacylation ribozyme variant] .
Reply: 2.4

Query: And then AUUCAUCUAGGUCAUCGCGUG [Fam2.2 aminoacylation ribozyme variant] , what is it?
Reply: 7.87

Query: Please answer likewise for CCACACCUCAACCAAUCGGUC [Fam1B.1 aminoacylation ribozyme variant]
Reply: 1.02

###

Tested on: biotinyl-Val-oxazolone
Experiment Description: self-aminoacylation, catalytic enhancement (BVO) (fold over background); higher = more active; k-Seq, kA / k0A0; sequences stand for … in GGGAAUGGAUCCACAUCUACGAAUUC…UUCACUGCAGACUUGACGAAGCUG
Fewer inactive variants are shown than the library holds.
Attribute Measured: self-aminoacylation
In your answer, state the number alone without any accompanying words.

AUUCGACUAGGUCAUCGGGUG [Fam2.2 aminoacylation ribozyme variant]
3.95
CUACUCUUCAAGCAAUCGGUC [Fam1B.1 aminoacylation ribozyme variant]
0.924
AAGUCUGCUAAUAGUCACAAG [Fam3.1 aminoacylation ribozyme variant]
1.25

Query: What does the data say about its self-aminoacylation? Entry: AUUACCGAGGUCAUCGAGUGA [Fam2.1 aminoacylation ribozyme variant]
Reply: 4.64

Query: How about AUUGACCGAGGUCAUCGGGUG [Fam2.2 aminoacylation ribozyme variant] ?
Reply: 4.8

Query: UUUCACCGAGGUCAUCGGGUG [Fam2.2 aminoacylation ribozyme variant] , same question.
Reply: 5.17

###

# maps each entry to its self-aminoacylation
System: biotinyl-Phe-oxazolone
Experiment Description: self-aminoacylation, catalytic enhancement (BFO) (fold over background); higher = more active; k-Seq, kA / k0A0; sequences stand for … in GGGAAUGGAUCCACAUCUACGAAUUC…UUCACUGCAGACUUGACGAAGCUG
This sample holds only a part of the variants without activity.
Lab note: record the figure alone, no unit after it.

Solved cases below.
CCACACGUCUAGCAAUCGGUC [Fam1B.1 aminoacylation ribozyme variant]
0.972
CCACUUCAAACAAUCGGUCUA [Fam1A.1 aminoacylation ribozyme variant]
28.5
AGUACCCUGGUCAUUGAGUGA [Fam2.1 aminoacylation ribozyme variant]
37.2
AGACUUCAAACAAUCGGUCUG [Fam1A.1 aminoacylation ribozyme variant]
125
AAGUUAGCUAAUAGUCGCCAG [Fam3.1 aminoacylation ribozyme variant]
1.48
AUUCUCCUAGGUCAUCGGGUG [Fam2.2 aminoacylation ribozyme variant]
82.4
AUUCACCUAGGUGAUCGGGUG [Fam2.2 aminoacylation ribozyme variant]
16.6
AUGACCCUGGUCAUCGCGUGA [Fam2.1 aminoacylation ribozyme variant]
126

# context switch: different sequence, same self-aminoacylation
Query: Given the entry CUACAUUAAACAAUCGGUCUG [Fam1A.1 aminoacylation ribozyme variant] , report its measured self-aminoacylation.
Reply: 0.647

###

Test system: biotinyl-Ile-oxazolone
Experiment Description: self-aminoacylation, catalytic enhancement (BIO) (fold over background); higher = more active; k-Seq, kA / k0A0; sequences stand for … in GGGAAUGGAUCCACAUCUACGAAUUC…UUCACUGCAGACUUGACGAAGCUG
This sample holds only a part of the variants without activity.
Below, each of the sequences is paired with its reported self-aminoacylation value.
Write no unit; give the number alone.

AUUACUCUCGUCAUCGAGUGA [Fam2.1 aminoacylation ribozyme variant]
2.11

Query: Observed self-aminoacylation on biotinyl-Ile-oxazolone for CUACUUCAAACAAUCCUUCUG [Fam1A.1 aminoacylation ribozyme variant] , please.
Reply: 0.603

Query: Input CCACACUUCAAGAAAUCGGUG [Fam1B.1 aminoacylation ribozyme variant]
Reply: 4.82

Query: Again, but for AACUUUGCUAAUAGUCGCAAC [Fam3.1 aminoacylation ribozyme variant]
Reply: 2.22

###

System: biotinyl-Met-oxazolone
Experiment Description: self-aminoacylation, catalytic enhancement (BMO) (fold over background); higher = more active; k-Seq, kA / k0A0; sequences stand for … in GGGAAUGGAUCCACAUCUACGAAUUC…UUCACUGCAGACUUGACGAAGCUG
This sample holds only a part of the variants without activity.
Reported self-aminoacylation is given for each of the following sequences.
Could you keep your reply to the number by itself?

Query: Please report the recorded self-aminoacylation for UUUCACCUAGAUCAUCGGGUG [Fam2.2 aminoacylation ribozyme variant] .
Reply: 2.58

Query: Next record, please: CUACUUCAAACAAUGGGCCUG [Fam1A.1 aminoacylation ribozyme variant]
Reply: 1.25

Query: Next sequence up: AUUACCCUCGUCCUCGAGUGA [Fam2.1 aminoacylation ribozyme variant]
Reply: 4.67

Query: Moving on to CCACGCUUCAAGCAAACGGUC [Fam1B.1 aminoacylation ribozyme variant]
Reply: 0.457

Query: Queued: AAUACCCUGGUAAUCGAGUGA [Fam2.1 aminoacylation ribozyme variant]
Reply: 7.38

Query: Can you handle AUUACGCUGGUCAUGGAGUGA [Fam2.1 aminoacylation ribozyme variant] next?
Reply: 2.67

Query: Also, AUUACCCGGGUCAUCGAAUGA [Fam2.1 aminoacylation ribozyme variant] please.
Reply: 0.972

Query: Note, next up: AGUCACCUAGGUCAUGGGGUG [Fam2.2 aminoacylation ribozyme variant]
Reply: 5.58

Query: Same thing, different sequence: AUUACUCGGGUCAUCGAGUGA [Fam2.1 aminoacylation ribozyme variant]
Reply: 6.51
